Listed next: entries and their corresponding activation.
test: qHTS Assay for Identification of Small Molecule Agonists for Hypoxia Response Element Signaling Pathway (AID 914); settings: ME-180 (cervical carcinoma) HRE-bla reporter, beta-lactamase ratio, CoCl2, 17 h; hits give high values; note: % of control where 0% means no effect
Results filed as inconclusive are left out.
Kindly provide the numeric value in % only, without the unit symbol.

Record request: activation value, item C/C(=C\c1ccc(C(=O)O)cc1)c1ccc2c(c1)C(C)(C)CCC2(C)C
-65.3

Record request: activation value, item CCN1C(=O)C=CC1=O
23.4

Record request: activation value, item NC1(C(=O)O)CC1
-20.7

Record request: activation value, item CCCn1c(=O)c2c(ncn2C)n(CCC)c1=O
3.52

###

target: Tyrosine-protein phosphatase non-receptor type substrate 1 (Homo sapiens) + Leukocyte surface antigen CD47 (Homo sapiens) (UniProt P78324+Q08722); test: CD47-SIRPalpha protein protein interaction - LANCE assay qHTS validation (AID 1347057); settings: Recombinant CD47-His / biotin-SIRPalpha, TR-FRET ratio; series mostly up to 38.3 µM
Sequence (P78324 whole entry, looked up): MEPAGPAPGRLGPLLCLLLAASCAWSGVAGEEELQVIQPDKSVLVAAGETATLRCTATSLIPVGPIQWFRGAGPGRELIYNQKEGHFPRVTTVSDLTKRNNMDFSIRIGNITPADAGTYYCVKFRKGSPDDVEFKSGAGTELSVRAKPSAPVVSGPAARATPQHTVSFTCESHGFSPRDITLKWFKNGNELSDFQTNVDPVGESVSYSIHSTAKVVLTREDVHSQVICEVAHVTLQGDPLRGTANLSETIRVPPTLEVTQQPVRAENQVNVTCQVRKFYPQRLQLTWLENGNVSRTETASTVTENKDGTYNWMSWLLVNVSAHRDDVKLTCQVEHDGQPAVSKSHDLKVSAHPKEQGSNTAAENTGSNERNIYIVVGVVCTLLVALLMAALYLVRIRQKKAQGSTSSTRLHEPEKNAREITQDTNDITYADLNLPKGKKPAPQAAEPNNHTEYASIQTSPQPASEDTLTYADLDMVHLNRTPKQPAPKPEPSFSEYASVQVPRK
Sequence (Q08722 whole entry, looked up): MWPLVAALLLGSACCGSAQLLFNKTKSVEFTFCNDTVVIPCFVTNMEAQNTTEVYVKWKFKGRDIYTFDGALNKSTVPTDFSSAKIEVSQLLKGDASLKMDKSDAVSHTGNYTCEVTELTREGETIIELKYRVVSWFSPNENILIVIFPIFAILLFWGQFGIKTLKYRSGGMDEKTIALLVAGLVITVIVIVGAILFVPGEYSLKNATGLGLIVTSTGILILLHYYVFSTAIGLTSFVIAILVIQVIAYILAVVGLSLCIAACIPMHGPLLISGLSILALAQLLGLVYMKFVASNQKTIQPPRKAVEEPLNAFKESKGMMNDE
Records with an inconclusive call do not appear. Active and inactive are the calls of the source. The call rests on the fitted dose curve; in most records, active means well fitted curve in the direction sought with a large enough effect in the signal ratio, with a control signal flat (not every such curve was filed as active); inconclusive means small, poorly fitted or top-dose-only effect, or effect the other way, or a change in a side signal; inactive means no such curve, though single readings can be large or run the other way; the % refers to the signal ratio.
Return exactly one item of YES (active), NO (inactive)

Field: example entries. Status: answers known.
[
  {
    "COMPOUND": "CC(=O)SC1CC2=CC(=O)CC[C@]2(C)C2CC[C@@]3(C)C(CC[C@@]34CCC(=O)O4)C12 (stereo not given in full)",
    "ASSIGNED_CATEGORY": "NO"
  },
  {
    "COMPOUND": "CC(N)(Cc1ccc(O)c(O)c1)C(=O)O (stereo not given)",
    "ASSIGNED_CATEGORY": "NO"
  },
  {
    "COMPOUND": "COc1cc(/C=C(\\C#N)C(=O)Nc2nnc(C(F)(F)F)s2)ccc1OCc1ccc(C(F)(F)F)cc1C(F)(F)F",
    "ASSIGNED_CATEGORY": "NO"
  },
  {
    "COMPOUND": "[N-]=[N+]=Nc1ccc(C(=O)CSC[C@H](NC(=O)CC[C@H](N)C(=O)O)C(=O)NCC(=O)O)cc1",
    "ASSIGNED_CATEGORY": "NO"
  },
  {
    "COMPOUND": "CCCC(=O)NCCc1c2n(c3ccc(OC)cc13)CCCc1ccccc1-2",
    "ASSIGNED_CATEGORY": "NO"
  },
  {
    "COMPOUND": "NCC(O)(CS(=O)(=O)O)c1ccc(Cl)cc1 (stereo not given)",
    "ASSIGNED_CATEGORY": "NO"
  },
  {
    "COMPOUND": "CN(C)CCC(c1ccc(Br)cc1)c1ccccn1 (stereo not given)",
    "ASSIGNED_CATEGORY": "NO"
  },
  {
    "COMPOUND": "CCCc1c(-c2ccc(O)cc2)nn(-c2ccc(O)cc2)c1-c1ccc(O)cc1",
    "ASSIGNED_CATEGORY": "NO"
  }
]

What is the recorded call for this compound in the test? CCc1ccc2c(-c3cccc(Cl)c3)nc(=O)n(CC)c2n1
NO

What is the recorded call for this compound in the test? O=C(O)C1=CC(=C(c2ccc(O)c(C(=O)O)c2)c2ccc(O)c(C(=O)O)c2)C=CC1=O
YES

###

target: Glutathione peroxidase 1 (Homo sapiens) (UniProt P07203); assay: Primary qHTS Assay for Inhibitors of Recombinant Selenoprotein Glutathione Peroxidase 1 (GPX1) (AID 1845191); conditions: recombinant GPX1, GR-coupled NADPH fluorescence, 15 min; series mostly up to 48.8 µM; note: nearly all actives have a fitted effect of over 65% in size
Sequence (P07203 whole entry, looked up): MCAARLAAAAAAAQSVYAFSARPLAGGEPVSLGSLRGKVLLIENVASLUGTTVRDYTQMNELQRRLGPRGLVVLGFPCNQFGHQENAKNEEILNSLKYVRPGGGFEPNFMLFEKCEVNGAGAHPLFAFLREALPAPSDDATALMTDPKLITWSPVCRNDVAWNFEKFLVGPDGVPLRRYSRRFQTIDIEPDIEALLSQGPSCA
Inconclusive results are not listed. The source made the active and inactive calls. Calls follow the shape of the dose curve; as a rule, active = well fitted inhibition curve with a large enough effect; inconclusive = small, poorly fitted or top-dose-only effect; inactive = flat fitted curve, though single readings scatter.
Return exactly one item of active, inactive

[
  {
    "COMPOUND": "NC(N)=NC(N)=Nc1ccccc1",
    "ASSIGNED_CATEGORY": "inactive"
  }
]

What is the recorded call for this compound in the test? NS(=O)(=O)c1cccc2c1c([N+](=O)[O-])cc1nc(O)c(O)nc12
inactive

What is the recorded call for this compound in the test? CC[N+](CC)(CC)CC(=O)Nc1c(C)cccc1C
inactive

What is the recorded call for this compound in the test? CCC(=O)N1CCN(C(=O)c2ccccc2)CC1
inactive

What is the recorded call for this compound in the test? Nc1ncnc2c1c(-c1ccc(Oc3ccccc3)cc1)cn2C1CCCC1
inactive

What is the recorded call for this compound in the test? Nn1nnc2ccccc21
inactive

What is the recorded call for this compound in the test? [N-]=[N+]=Nc1ccc(C(=O)CSC[C@H](NC(=O)CC[C@H](N)C(=O)O)C(=O)NCC(=O)O)cc1
inactive

What is the recorded call for this compound in the test? C/C(=C\c1ccc(C(=O)O)cc1)c1ccc2c(c1)C(C)(C)CCC2(C)C
inactive

###

Molecular target: Pyruvate kinase (Leishmania mexicana) (UniProt Q27686)
Assay: qHTS Validation Assay for Activators of Leishmania Mexicana Pyruvate Kinase (AID 959)
Settings: purified L. mexicana pyruvate kinase, enzyme activity; series mostly up to 57.5 µM
Description: NIH Molecular Libraries Screening Centers Network [MLSCN] NIH Chemical Genomics Center [NCGC] PI names: Malcom Walkinshaw, Hugh Morgan and Linda Gilmore University of Edinburgh, Edinburgh, UK Species of Leishmania are responsible for a wide spectrum of diseases throughout the tropics and subtropics, ranging from self-healing ulcers to highly disfiguring lesions and serious, often lethal visceral diseases, such as kala-azar. […]
The source made the active and inactive calls. The call rests on the fitted dose curve; in most records, active means well fitted activation curve with a large enough effect; inconclusive means small, poorly fitted or top-dose-only effect; inactive means no such curve, though single readings can be large or run the other way.
Return exactly one item of YES = active, NO = inactive

Field: example entries. Status: answers known.
[
  {
    "CHEMICAL_STRUCTURE": "N#Cc1cc2nc(O)c(O)nc2cc1[N+](=O)[O-]",
    "ASSIGNED_CATEGORY": "YES"
  },
  {
    "CHEMICAL_STRUCTURE": "Cc1nc(N=Nc2ccc(S(=O)(=O)O)cc2S(=O)(=O)O)c(COP(=O)(O)O)c(C=O)c1O",
    "ASSIGNED_CATEGORY": "YES"
  }
]

What is the recorded call for this molecule in the test? Nc1ccc(-c2nc3ccc(-c4nc5ccc(N)cc5[nH]4)cc3[nH]2)cc1
NO

What is the recorded call for this molecule in the test? COc1cc(/C=C(\C#N)C(=O)c2ccc(O)c(O)c2)cc(I)c1O
YES

What is the recorded call for this molecule in the test? O=C1Cc2c([nH]c3ccc(Br)cc23)-c2ccccc2N1
NO

What is the recorded call for this molecule in the test? CNC(=O)c1cc2c(cn1)[nH]c1ccccc12
NO

What is the recorded call for this molecule in the test? Nc1ccc(-c2ccc3ccccc3n2)cc1
NO

###

test: Validation qHTS assay for inhibitors of Activation Induced Cytidine Deaminase (AID): UDG Counterscreen signal (AID 1347427); settings: biochemical UDG counterscreen, fluorescence signal; series mostly up to 115 µM; note: 0% is about no effect
The source made the active and inactive calls. Calls follow the shape of the dose curve; as a rule, active = well fitted curve in the direction sought with a large enough effect; inconclusive = small, poorly fitted or top-dose-only effect, or another doubt; inactive = no such curve, though single readings can be large or run the other way.
MEASURED_QUANTITY: outcome

In the examples that follow, each entry is paired with its recorded outcome.
[
  {
    "MOLECULE": "Cc1nc(N=Nc2ccc(C(=O)O)cc2)c(COP(=O)(O)O)c(C=O)c1O",
    "RECORDED_MEASUREMENT": "inactive"
  },
  {
    "MOLECULE": "N#CC(C#N)=C(N)/C(C#N)=C/c1ccc(O)cc1",
    "RECORDED_MEASUREMENT": "inactive"
  },
  {
    "MOLECULE": "Cn1cc(C(F)(F)F)nc1-c1ccc(OCC(O)CNCCOc2ccc(O)c(C(N)=O)c2)cc1 (configuration not stated)",
    "RECORDED_MEASUREMENT": "inactive"
  },
  {
    "MOLECULE": "NC1CONC1=O (configuration not stated)",
    "RECORDED_MEASUREMENT": "inactive"
  },
  {
    "MOLECULE": "CN(C)CCC(c1ccc(Br)cc1)c1ccccn1 (configuration not stated)",
    "RECORDED_MEASUREMENT": "inactive"
  },
  {
    "MOLECULE": "C=CCN1CCc2c(cc(O)c(O)c2Br)[C@@H](c2ccccc2)C1",
    "RECORDED_MEASUREMENT": "inactive"
  },
  {
    "MOLECULE": "NC(=O)c1ccccc1",
    "RECORDED_MEASUREMENT": "inactive"
  },
  {
    "MOLECULE": "CN(CC[C@@H](Oc1ccc(C(F)(F)F)cc1)c1ccccc1)CC(=O)O",
    "RECORDED_MEASUREMENT": "inactive"
  }
]

Note: attention shifts to another entry.
Record request: outcome value, item O=C(O)c1ccccc1Nc1ccccc1
inactive

###

Molecular target: ATPase family AAA domain-containing protein 5 (Homo sapiens)
Assay: Validation screen for small molecules that inhibit ELG1-dependent DNA repair in human embryonic kidney (HEK293T) cells expressing luciferase-tagged ELG1 (AID 493107);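 note: cells co-treated with the DNA-damaging agent 5-fluorouridine alongside compound; % is set by controls: 0 for no effect and ±100 for the full control effect; inhibitors lower the ELG1-luciferase luminescence signal; nearly all actives have a fitted effect of over 70% in size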
Details: HEK293T ELG1-luciferase level, luminescence, 5-fluorouridine co-treatment, 16 h; series mostly up to 46.1 µM
Description: NIH Molecular Libraries Probe Production Network [MLPCN] NIH Chemical Genomics Center [NCGC] Assay Provider: Kyungjae Myung, NHGRI, NIH Keywords: MLPCN, qHTS, NCGC, genotoxicity, cancer Cancer cells divide rapidly compared to normal cells in the body. During cell division, cancer cells need to duplicate their genome by DNA replication. The failure of genome duplication leads to cancer cells' death. […] With this in mind, we developed a quantitative high-throughput ELG1-luciferase reporter gene assay. […]
Inconclusive results are not listed. Calls of active or inactive are those of the source. Calls follow the shape of the dose curve; as a rule, active = well fitted inhibition curve with a large enough effect; inconclusive = small, poorly fitted or top-dose-only effect, or effect the other way; inactive = flat fitted curve, though single readings scatter.
Return exactly one item of TRUE (active), FALSE (inactive)

[
  {
    "COMPOUND": "Cc1nc(N=Nc2ccc(S(=O)(=O)O)cc2S(=O)(=O)O)c(COP(=O)(O)O)c(C=O)c1O",
    "ASSIGNED_CATEGORY": "FALSE"
  }
]

What is the recorded call for this compound in the test? C=CCN1CCc2c(cc(O)c(O)c2Br)[C@@H](c2ccccc2)C1
FALSE

What is the recorded call for this compound in the test? COc1cc(CNC(=O)CCCCCCC(C)C)ccc1O
FALSE

What is the recorded call for this compound in the test? NC1(C(=O)O)CCc2cc(C(=O)O)ccc21 (centres undefined)
FALSE

What is the recorded call for this compound in the test? N[C@H](C(=O)O)[C@H]1C[C@@H]1C(=O)O
FALSE
